tested on: COLO 205; assay: NCI tumour cell line growth inhibition, 48 h
Calls of active or inactive are those of the source. Cut-off read from the data, not from the text of the source: active = GI50 up to about 1.1 µM and inactive = higher.
The following molecules are listed with their measured GI50 values.

COc1ccc(/C=C2/CSC/C(=C/c3ccc(OC)c(OC)c3)C2=O)cc1OC ... 2.24 µM (inactive)
CCC1(CC)CC(=NNS(=O)(=O)c2ccc(C)cc2)C1 ... > 100 µM (inactive)
COc1ccc(-c2c3c(nc4[nH]c(=S)[nH]c(=S)c24)CCCC3)cc1OC ... 45 µM (inactive)

Form: molecule = `O=C(O)c1nn[nH]c1S` ; GI50 = > 100 µM (inactive)

The molecule identified as CC(=O)NC(CCC(=O)C=[N+]=[N-])C(=O)O (stereo unspecified) registered its GI50 at > 100 µM (inactive)

Value of measured GI50 for the entry COC(=O)C1C(OS(=O)(=O)O)CCC2CN3CCc4c([nH]c5ccccc45)C3CC21 (stereo unspecified) : > 100 µM (inactive)

Briefly, GI50 measured for CC(C)(C)C(=O)OCC1CCC[N+]2(C)CCCCC12 (stereo unspecified) : > 100 µM (inactive)

The recorded GI50 for entry Cc1cc(NCC2CC/C(=C\C=C\c3ccccc3)C2=O)no1 (stereo unspecified) equals > 100 µM (inactive)

So, C=CC(CBr)CCC(Br)C(C)(C)Br (stereo unspecified) ? Its GI50 was > 10 µM (inactive)

Looking up `CCOC(=O)CN(Cn1cncn1)Cn1cncn1` , I found its GI50 recorded as 36.9 µM (inactive)

The molecule identified as `COc1cc(C(=O)O)c(-c2cc3c(cc2C=O)OCO3)c(OC)c1OC` registered its GI50 at > 10 µM (inactive)

Measured GI50 of `CCOC(=O)/C(I)=C/c1cc(OC)c(OC)c(OC)c1` : 6.12 µM (inactive)

Entry under test: `COc1ccc(/N=N/c2ccc3oc(=O)c(C(=O)Nc4ccc(Cl)cc4)cc3c2)cc1` . Its GI50 was > 10 µM (inactive)

Note to self: GI50 recorded for `C#C[C@@]1(O)CCCC2=CC(=O)C[C@]21C` was > 100 µM (inactive)

GET /value?item= `COc1cccc2ccc(C(=O)c3ccccc3)nc12` &field=GI50 returns > 100 µM (inactive)

Reported GI50 for `C#C[C@]1(O)CC[C@H]2[C@@H]3CCC4=C/C(=N/CCOC(=O)c5cccc6c(=O)c7ccccc7[nH]c56)CC[C@@H]4[C@H]3CC[C@@]21C` was 37.1 µM (inactive)

====

tested on: LOX IMVI; experiment: NCI tumour cell line growth inhibition, 48 h
Active and inactive are the calls of the source. No stated cut-off is given here; in the data, active = GI50 up to about 1.1 µM and inactive = higher.
Item-by-item account of GI50

O=C(N/N=C/c1ccc([N+](=O)[O-])cc1)c1cccc2nc3ccccc3nc12 ... > 85.5 µM (inactive)
CCOC(=O)C1(C(C)=O)OC(=O)c2cnccc21 (stereo not given) ... > 100 µM (inactive)
Cc1nc2ccc(S(=O)(=O)Nc3ccc(Cl)cc3)cc2c(=O)n1NC(=O)CNc1ccc(Cl)cc1 ... > 100 µM (inactive)
BrCC[N+]12CC[N+](CCBr)(CC1)C2 ... > 100 µM (inactive)

Read the next record carefully.
GI50 for `CCS/C(=N\c1ccccc1)SC` is > 100 µM (inactive)

====

Recorded measurements of GI50, one per entry
system: BT-549; assay: NCI tumour cell line growth inhibition, 48 h
Active and inactive are the calls of the source. Cut-off read from the data, not from the text of the source: active = GI50 up to about 1.1 µM and inactive = higher.

Per the record, `CCC1(CC)CC(=NNS(=O)(=O)c2ccc(C)cc2)C1` has GI50 of > 100 µM (inactive)

Reported GI50 for CC(C)CCC[C@@H](C)C1CCC2[C@@H]3CCC4C[C@@H](NS(C)(=O)=O)CC[C@]4(C)C3CC[C@@]21C (some centres undefined) was > 100 µM (inactive)

Record summary for CCOC(=O)C1=C(C)N(c2ccc(Cl)cc2)C2(O)C=CC(Nc3ccc(Cl)cc3)=C3C(=O)N(c4ccccc4)C(=O)C312 (centres undefined) : reported GI50 = 1.54 µM (inactive)

GI50 in this record for CC1CC[C@@]2(OC1)OC1C[C@H]3[C@@H]4C/C(=N\N(C)C)[C@@]5(O)CC(O)CC[C@]5(C)[C@H]4CC[C@]3(C)C1[C@@H]2C (some centres undefined) : 51.2 µM (inactive)

So for COc1ccc2cc1Oc1ccc(cc1)C(Sc1ccccc1)CCOC(=O)CC2 (centres undefined) , the logged GI50 turned out to be > 100 µM (inactive)

GI50 reading for CCOC(=O)C1=CN=C2C(=O)N(c3ccccc3)N(C)C2(C)C1=N (centres undefined) : > 100 µM (inactive)

// sample CCOC(=O)C(NC(=O)c1ccccc1)(N1CCOCC1)C(F)(F)F (centres undefined) , its GI50 was > 100 µM (inactive)

Memo: CCOC(=O)C1(C(C)=O)OC(=O)c2cnccc21 (centres undefined) , reported GI50: > 100 µM (inactive)

For this compound ( `COc1ccc(/C=C2/CSC/C(=C/c3ccc(OC)c(OC)c3)C2=O)cc1OC` ), measured GI50 is 2.88 µM (inactive)

GI50 measured on `Cc1ccc(-n2cc(-c3ccc(Cl)cc3)c(C#N)c2N)cc1` = 18.2 µM (inactive)

The compound listed as `COc1cnc2cc(C(=O)O)c3c([N+](=O)[O-])cccc3c2c1` shows GI50 equal to > 100 µM (inactive)

// GI50 value for CCOC(=O)c1cc(C2CCN(CC(C)CC)C2=S)c(C(=O)/C=C(/C)N)[nH]1 (centres undefined) : > 50 µM (inactive)

GI50 reading for COc1ccc2c(c1)CC1COc3cc(OC)ccc3C1O2 (centres undefined) : 44.8 µM (inactive)

Data point: `COc1cc(OC)cc(-c2nc3cc(F)ccc3s2)c1` ; GI50 = 11 µM (inactive)

Per the records, this compound ( `CCOC(=O)c1c(SCCO)n(-c2ccccc2)c(=S)n(-c2ccccc2)c1=O` ) has GI50 equal to > 100 µM (inactive)

`O=c1c2nc(-c3ccccc3)oc2n(-c2ccccc2)c(=O)n1-c1ccccc1` yielded GI50 of 28.4 µM (inactive)

For this compound ( `COc1cc2c(cc1OCc1ccccc1)NC(=O)[C@@H]1C[C@@H](O)CN1C2=O` ), measured GI50 is > 100 µM (inactive)

Entry `O=C1C(=Cc2ccc(O)cc2)N=C(c2ccccc2)N1n1c(-c2ccccc2)nc2ccccc2c1=O` ; GI50 = > 100 µM (inactive)

====

Quick list: GI50 per entry.
tested on: HOP-92; assay: NCI tumour cell line growth inhibition, 48 h
Activity calls are given as the source filed them. Cut-off read from the data, not from the text of the source: active = GI50 up to about 1.1 µM and inactive = higher.

Answered examples (8):
O=C1C=CC2(C=C1)C[C@H](NC(=O)OCc1ccccc1)C(=O)O2 ... 16.3 µM (inactive)
Cc1ccccc1[P+](C)(c1ccccc1C)c1ccccc1C ... 12.7 µM (inactive)
Cc1nc2ccc(S(=O)(=O)Nc3ccc(Cl)cc3)cc2c(=O)n1NC(=O)CNc1ccc(Cl)cc1 ... > 100 µM (inactive)
C#C[C@]1(O)CC[C@H]2[C@@H]3CCC4=C/C(=N/CCOC(=O)c5cccc6c(=O)c7ccccc7[nH]c56)CC[C@@H]4[C@H]3CC[C@@]21C ... 23.1 µM (inactive)
Cc1cc(O)nc(NN2C(Cl)C(=O)C2c2ccco2)n1 (centres undefined) ... 25.1 µM (inactive)
CCOc1ccc(NCC2CC/C(=C\c3ccccc3OC)C2=O)cc1 (centres undefined) ... 19.5 µM (inactive)
O=C1c2ccccc2C(=O)c2c(NCCNCCO)ccc(O)c21 ... 3.21 µM (inactive)
COC(=O)C1=CCS(=O)(=O)C1 ... > 100 µM (inactive)

The compound `Cn1c2cc(O)cc(O)c2c(=O)c2c([N+](=O)[O-])cccc21` , when measured on HOP-92, yielded GI50 of > 100 µM (inactive)

====

test system: U-251; assay: NCI tumour cell line growth inhibition, 48 h
Active and inactive are the calls of the source. Cut-off read from the data, not from the text of the source: active = GI50 up to about 1.1 µM and inactive = higher.
Outcome field: choose from Yes = active, No = inactive

Look over these answered cases.
Cc1cc(C)[n+]2c(c1)C=CC2.[O-][Cl+3]([O-])([O-])[O-] ... No
O=C1C/C(=C/c2ccc(/C=C3/CC(=O)N(c4cccc(Br)c4)C3=O)cc2)C(=O)N1c1cccc(Br)c1 ... No
C[N+](C)(C)CC1CCCCC1O (centres undefined) ... No

How was `O=C(/C=C/c1ccsc1)c1ccc(Cl)cc1` classified in this test?
No

Any idea what this test logged for COc1cc(C2c3cc4c(cc3[C@@H](Nc3ccc(F)cc3)C3CO[C@@H](O)[C@H]23)OCO4)cc(OC)c1O (some centres undefined) ?
No

Just curious, what result did `COc1ccc(S(=O)(=O)O)cc1-n1nc(C(=O)Nc2ccccc2)n[n+]1-c1cc(S(=O)(=O)[O-])ccc1OC` get here?
No

Outcome logged for CC(C)(C)C(=O)OCC1CCC[N+]2(C)CCCCC12 (centres undefined) in this assay:
No

Any idea what this test logged for Cc1ccc(NC(=O)C(=O)C(C#N)c2ccccc2C)cc1C (centres undefined) ?
No

I would be grateful if you could indicate the recorded call for `C/C=C1\C(=O)O[C@H]2C/C(C)=C/CC/C(C)=C/CC[C@@]3(C)O[C@@H]3C[C@@H]12` .
No

Give the logged outcome of this assay for the following compound: `COc1ccccc1OCC(=N/NC(=O)c1ccncc1)/N=C/c1ccncc1`
No
